# Fold Induction, 13B3 Assay, 33 uM listing for each entry below
Target: GAL4 DBD-CfEcR(DEF)/VP16AD-MmRXRE (Choristoneura fumiferana)
Assay: 13B3 Assay (CHO stable cell line, luciferase reporter)
Details: 33 uM ligand; RLU ligand treated / RLU DMSO treated cells; average of two wells
# print the numeric value only

Reference set, count: 5
>>> val("Cc1cc(C)cc(C(=O)N(NC(=O)c2ccc3c(c2)CCCC3)C(C)(C)C)c1 [RG-101887]")
542
>>> val("COc1cccc(C(=O)N(NC(=O)c2ccc3c(c2C)OCCO3)C(C)(C)C)c1 [RG-100360]")
745
>>> val("CCc1ccc(C(=O)NN(C(=O)c2ccccc2[N+](=O)[O-])C(C)(C)C)cc1 [RG-101013]")
406
>>> val("COc1cccc(C(=O)NN(C(=O)c2cc(F)ccc2F)C(C)(C)C)c1C [RG-100603]")
570
>>> val("CCc1ccc(C(=O)NN(C(=O)c2cc(F)c(F)c(F)c2)C(C)(C)C)c(F)c1 [RG-115259]")
2981

input: Entry CCc1c(C(=O)NN(C(=O)c2cc(F)ccc2F)C(C)(C)C)ccc2c1OCCO2 [RG-115508] needs its Fold Induction, 13B3 Assay, 33 uM filled in; supply it.
output: 191

input: Read the entry CCc1c(OC)cccc1C(=O)NN(C(=O)c1ccc2c(c1)OCO2)C(C)(C)C [RG-100699] and write its reported Fold Induction, 13B3 Assay, 33 uM.
output: 2296

###

Target: GAL4 DBD (1-147)-CfEcR(DEF)/VP16AD-βRXREF-LmUSPEF (Choristoneura fumiferana, UniProt O77240)
Experiment: cell-based
Details: 3.3 uM ligand; RLU ligand treated / RLU DMSO treated cells; average of two wells
Entries annotated with measured Fold Induction, 27-63 Assay, 3.3 uM

>>> val("CCc1c(OC)cccc1C(=O)NN(C(=O)c1ccccc1OC)C(C)(C)C [RG-100725]")
1096
>>> val("COc1ccc(C(=O)NN(C(=O)c2ccc(F)cc2Cl)C(C)(C)C)cc1 [RG-101057]")
30

Then this compound:
input: Give the reported Fold Induction, 27-63 Assay, 3.3 uM for this compound. CCc1ccc(C(=O)NN(C(=O)c2cc(C)cc(C)c2)C(CC)C(C)(C)C)cc1 (stereo not drawn) [RG-115836]
output: 1822

###

Biological target: GAL4 DBD-CfEcR(DEF)/VP16AD-MmRXRE (Choristoneura fumiferana)
Test: 13B3 Assay (CHO stable cell line, luciferase reporter)
Conditions: read-out: Fold Induction, 13B3 Assay, 3.3 uM
// values below are reported fold induction at 3.3 µM
Lab note: jot down the number only; don't add units.

>>> val("COc1cccc(C(=O)NN(C(=O)c2cc(C)cc(C)c2)C(C)(C)C)c1CN(C)C [RG-115497]")
1
>>> val("CCc1c(OC)cccc1C(=O)NN(C(=O)c1cnccn1)C(C)(C)C [RG-115550]")
1
>>> val("COc1cccc(C(=O)NN(C(=O)c2cc(C)cc(C)c2)C(C)(C)C)c1CS(C)(=O)=O [RG-115408]")
1
>>> val("COc1cccc(C(=O)NN(C(=O)c2cc(C)cc(C)c2)C(C)(C)C)c1C [RG-102398]")
8120

input: Report value only: fold induction at 3.3 µM, GAL4 DBD-CfEcR(DEF)/VP16AD-MmRXRE (Choristoneura fumiferana), COc1ccc(C(=O)N(NC(=O)c2ccc3c(c2C)OCCO3)C(C)(C)C)c(OC)n1 [RG-115517]
output: 8400

input: Fill in fold induction at 3.3 µM for CCc1c(C(=O)NN(C(=O)c2cc(C)cc(Cl)c2)C(C)(C)C)ccc2c1OCCO2 [RG-101494] tested with GAL4 DBD-CfEcR(DEF)/VP16AD-MmRXRE (Choristoneura fumiferana).
output: 755

input: # return fold induction at 3.3 µM of CCOC(=O)C(C)(C)N(NC(=O)c1cccc(OC)c1CC)C(=O)c1cc(C)cc(C)c1 [RG-115025] (system: GAL4 DBD-CfEcR(DEF)/VP16AD-MmRXRE (Choristoneura fumiferana))
output: 8

input: Report fold induction at 3.3 µM from GAL4 DBD-CfEcR(DEF)/VP16AD-MmRXRE (Choristoneura fumiferana) testing of CC(C)(C)N(NC(=O)c1ccc(Cl)cc1)C(=O)c1ccccc1 [RG-100864]
output: 318
